Origin of measurements: patent EP4737450A1

Biological target: plasma kallikrein (PKa) (Homo sapiens)
Construct: purchased R & D 2497-SE
Sequence (P03952 391-638 limits assumed): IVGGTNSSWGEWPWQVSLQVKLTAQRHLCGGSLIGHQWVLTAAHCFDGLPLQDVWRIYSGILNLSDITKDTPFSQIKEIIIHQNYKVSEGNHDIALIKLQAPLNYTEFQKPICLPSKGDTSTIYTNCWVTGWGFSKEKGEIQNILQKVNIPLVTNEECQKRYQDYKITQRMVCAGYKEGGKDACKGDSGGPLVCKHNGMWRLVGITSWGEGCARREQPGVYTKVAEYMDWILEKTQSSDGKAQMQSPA
Sequence (P03952 20-390 partner limits assumed): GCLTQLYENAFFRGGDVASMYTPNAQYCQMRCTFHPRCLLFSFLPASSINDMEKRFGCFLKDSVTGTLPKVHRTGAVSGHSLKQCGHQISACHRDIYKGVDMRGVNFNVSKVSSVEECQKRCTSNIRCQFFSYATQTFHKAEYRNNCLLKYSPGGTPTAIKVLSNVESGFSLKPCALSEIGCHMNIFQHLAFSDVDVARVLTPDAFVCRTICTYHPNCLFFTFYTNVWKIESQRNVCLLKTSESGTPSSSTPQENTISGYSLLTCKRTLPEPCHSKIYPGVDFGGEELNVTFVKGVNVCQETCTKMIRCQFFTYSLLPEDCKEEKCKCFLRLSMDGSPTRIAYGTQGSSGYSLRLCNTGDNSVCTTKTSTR
Experiment: Inhibitory activity against plasma kallikrein in vitro (fluorescence intensity enzyme assay, Pro-Phe-Arg-AMC substrate)
Type: biochemical
Conditions: plasma kallikrein enzyme assay, Pro-Phe-Arg-AMC substrate; read-out: PKa IC50
outcome.measure: IC50 (nM)

[[record]]
compound = "O=C(NCc1ncc2c(c1F)OCC2)c1cnn(Cc2ccc(Cn3ccccc3=O)cc2)c1"
outcome_measure = "IC50"
scale_unit = "nM"
inequality_symbol = "="
numeric_result = 1.68

[[record]]
compound = "N=C(N)c1ccc(CNC(=O)c2cnn(Cc3ccc(OC4CCCC4)c(C(F)(F)F)c3)c2)cc1"
outcome_measure = "IC50"
scale_unit = "nM"
inequality_symbol = "="
numeric_result = 1.68

[[record]]
compound = "Cc1cc(N)nc(C)c1CNC(=O)c1ncn(Cc2ccc(Cn3cc(F)ccc3=O)cc2)n1"
outcome_measure = "IC50"
scale_unit = "nM"
inequality_symbol = "<"
numeric_result = 0.05

[[record]]
compound = "N=C(N)c1ccc(CNC(=O)c2cnn(Cc3ccc(CC4CC4)cc3)c2)nc1"
outcome_measure = "IC50"
scale_unit = "nM"
inequality_symbol = "="
numeric_result = 14.3

[[record]]
compound = "N=C(N)c1ccc(CNC(=O)c2cnn(Cc3ccc(CC4CC4)c(F)c3)c2)cc1"
outcome_measure = "IC50"
scale_unit = "nM"
inequality_symbol = "="
numeric_result = 2.67

[[record]]
compound = "COCc1nn(Cc2ccc(Cn3ccc4ncccc43)cc2)cc1C(=O)NCc1nccc(OC)c1F"
outcome_measure = "IC50"
scale_unit = "nM"
inequality_symbol = "="
numeric_result = 245

[[record]]
compound = "COc1ccnc(CNC(=O)c2cn(Cc3ccc(Cn4ccccc4=O)cc3)nc2COCCN(C)C)c1F"
outcome_measure = "IC50"
scale_unit = "nM"
inequality_symbol = "="
numeric_result = 16.3

[[record]]
compound = "N=C(N)c1cnc(CNC(=O)c2cnn(Cc3ccc(CC4CC4)cc3)c2)nc1"
outcome_measure = "IC50"
scale_unit = "nM"
inequality_symbol = "="
numeric_result = 42.4

[[record]]
compound = "Cn1cnc2c1CC[C@H]2NC(=O)c1cn(Cc2cn3cc(C4CC4)ccc3n2)nn1"
outcome_measure = "IC50"
scale_unit = "nM"
inequality_symbol = "="
numeric_result = 1.65

[[record]]
compound = "COc1ccc(F)c(CNC(=O)c2cn(Cc3ccc(Cn4ccccc4=O)cc3)nc2COC2CCC2)c1F"
outcome_measure = "IC50"
scale_unit = "nM"
inequality_symbol = "="
numeric_result = 12.6

[[record]]
compound = "COCc1nn(Cc2ccc(Cn3ccccc3=O)cc2)cc1C(=O)NCc1cn2c(n1)CNCC2"
outcome_measure = "IC50"
scale_unit = "nM"
inequality_symbol = "="
numeric_result = 0.92

[[record]]
compound = "COc1ccc(F)c(CNC(=O)c2cn(Cc3ccc(Cn4cc(F)ccc4=O)cc3)nc2COC2(C)COC2)c1F"
outcome_measure = "IC50"
scale_unit = "nM"
inequality_symbol = "="
numeric_result = 16.6

[[record]]
compound = "COCc1nn(Cc2ccc(Cn3ccccc3=O)cc2)cc1C(=O)NCc1ccc(C(=N)N)cc1F"
outcome_measure = "IC50"
scale_unit = "nM"
inequality_symbol = "="
numeric_result = 0.08

[[record]]
compound = "COCc1nn(Cc2ccc(C3CCCCC3)c(C(F)(F)F)c2)cc1C(=O)NCc1ccc(C(=N)N)cc1"
outcome_measure = "IC50"
scale_unit = "nM"
inequality_symbol = "="
numeric_result = 0.18

[[record]]
compound = "Nc1ncc2cc(CNC(=O)c3cnn(Cc4ccc(Cn5ccccc5=O)cc4)c3)ccn12"
outcome_measure = "IC50"
scale_unit = "nM"
inequality_symbol = "="
numeric_result = 10.8

[[record]]
compound = "COCc1nn(Cc2ccc(N3CC4C(C3)C4(F)F)cc2C#N)cc1C(=O)NCc1cc2cnccc2[nH]1 (stereo not shown) [Compound 86]"
outcome_measure = "IC50"
scale_unit = "nM"
inequality_symbol = "="
numeric_result = 21.2

[[record]]
compound = "N=C(N)c1ccc(CNC(=O)c2cnn(Cc3cn4cc(C5CC5)ccc4n3)c2)cc1"
outcome_measure = "IC50"
scale_unit = "nM"
inequality_symbol = "="
numeric_result = 0.898

[[record]]
compound = "CCc1cc(N2CC3C(C2)C3(F)F)ccc1Cn1cc(C(=O)NCc2cc3cnccc3[nH]2)c(COC)n1 (stereo not shown)"
outcome_measure = "IC50"
scale_unit = "nM"
inequality_symbol = "="
numeric_result = 192

[[record]]
compound = "COCc1nn(Cc2ccc(N3CC4C(C3)C4(F)F)cc2C#N)cc1C(=O)NCc1cn2c(n1)CNCC2 (stereo not shown)"
outcome_measure = "IC50"
scale_unit = "nM"
inequality_symbol = ">"
numeric_result = 100

[[record]]
compound = "Cc1cc(N)nc(C)c1CNC(=O)c1ncn(Cc2cc(Cl)c(Cn3ccccc3=O)cc2Cl)n1"
outcome_measure = "IC50"
scale_unit = "nM"
inequality_symbol = "="
numeric_result = 0.096

[[record]]
compound = "N=C(N)c1cnc(CNC(=O)c2cnn(Cc3ccc(CC4CC4)cc3)c2)cn1"
outcome_measure = "IC50"
scale_unit = "nM"
inequality_symbol = "="
numeric_result = 855

[[record]]
compound = "Cc1cc(N)nc(C)c1CNC(=O)c1nc(Cc2ccc(Cn3ccccc3=O)cc2)nn1C"
outcome_measure = "IC50"
scale_unit = "nM"
inequality_symbol = ">"
numeric_result = 1000

[[record]]
compound = "COc1ccc(F)c(CNC(=O)c2cn(Cc3ccc(Cn4cc(F)ccc4=O)cc3)nc2COCCN(C)C)c1F"
outcome_measure = "IC50"
scale_unit = "nM"
inequality_symbol = "="
numeric_result = 4.98

[[record]]
compound = "COc1ccc(F)c(CNC(=O)c2cn(Cc3ccc(Cn4cc(F)ccc4=O)cc3)nc2COCC2(C)COC2)c1F"
outcome_measure = "IC50"
scale_unit = "nM"
inequality_symbol = "="
numeric_result = 10.5

[[record]]
compound = "CN1CCc2cnc(CNC(=O)c3cn(Cc4ccc(Cn5ccccc5=O)cc4)nc3C(F)(F)F)c(F)c21"
outcome_measure = "IC50"
scale_unit = "nM"
inequality_symbol = "="
numeric_result = 1.45

[[record]]
compound = "COCc1nn(Cc2ccc(Cn3ccccc3=O)cc2)cc1C(=O)NCc1ccc(C(=N)N)nc1"
outcome_measure = "IC50"
scale_unit = "nM"
inequality_symbol = "="
numeric_result = 0.09

[[record]]
compound = "COc1cc(Cn2cc(C(=O)NCc3ccc(C(=N)N)cc3)cn2)cc(OC)c1C(=O)C1CC1"
outcome_measure = "IC50"
scale_unit = "nM"
inequality_symbol = ">"
numeric_result = 100

[[record]]
compound = "N=C(N)c1ccc(CNC(=O)c2cnn(Cc3ccc(Cn4ccccc4=O)cc3)c2)c(F)c1"
outcome_measure = "IC50"
scale_unit = "nM"
inequality_symbol = "="
numeric_result = 0.07

[[record]]
compound = "COCC1CN(c2nn(Cc3ccc(Cn4ccccc4=O)cc3)cc2C(=O)NCc2nccc(OC)c2F)C1"
outcome_measure = "IC50"
scale_unit = "nM"
inequality_symbol = "="
numeric_result = 12.8

[[record]]
compound = "N=C(N)c1ccc(CNC(=O)c2cnn(Cc3ccc(OCC4CC4)cc3)c2)cc1"
outcome_measure = "IC50"
scale_unit = "nM"
inequality_symbol = "="
numeric_result = 3.29

[[record]]
compound = "COc1ccc(F)c(CNC(=O)c2cn(Cc3ccc(Cn4cc(F)ccc4=O)cc3)nc2COCC2(F)COC2)c1F"
outcome_measure = "IC50"
scale_unit = "nM"
inequality_symbol = "="
numeric_result = 4.97

